In this section we review reported microsomal CLint values for a set of molecules.
ASSAY: Intrinsic clearance in human liver microsomes by LC/MS/MS analysis
Format: ADME, Microsome
RUN PARAMETERS: read-out: CLH
Give the value in µL/min/mg but do not write µL/min/mg after it.

structure_smiles_string=Cn1c(=O)n(-c2ccc(C(C)(C)C#N)cc2)c2c3cc(-c4cn[nH]c4)ccc3ncc21 measurement_label="microsomal CLint" endpoint_value=38

Entry "Cn1c(=O)n(C2CCNCC2)c2c3cc(-c4cn[nH]c4)ccc3ncc21" has what microsomal CLint?
3

###

ASSAY: Tmax in NMRI mouse at 10 mg/kg, ip measured up to 24 hrs by LC/MS/MS analysis
Type: ADME, organism-based
RUN PARAMETERS: in vivo
MEASUREMENT LABEL: Tmax (min)
Provide only the numeric value, understood in min.

# query: Tmax of entry "Cn1c(=O)n(-c2ccc(C(C)(C)C#N)cc2)c2c3cc(-c4cn[nH]c4)ccc3ncc21"
30

###

ASSAY: AUC in NMRI mouse at 10 mg/kg, ip measured up to 24 hrs by LC/MS/MS analysis
Assay type: ADME, organism-based
Parameters: route intraperitoneal, dose 10 mg/kg, time <=24
RUN PARAMETERS: in vivo
MEASUREMENT LABEL: AUC at 24 h

Please look up its AUC at 24 h: "Cn1c(=O)n(-c2ccc(C(C)(C)C#N)cc2)c2c3cc(-c4cn[nH]c4)ccc3ncc21"
920 ng·h/mL

###

hepatocyte CLint at 1 µM: recorded values
ASSAY: Intrinsic clearance in Han Wistar rat hepatocytes assessed per million cells at 1 uM by LC/MS/MS analysis
Format: ADME, cell-based, Hepatocyte
RUN PARAMETERS: read-out: CLH

structure_smiles_string=Cn1c(=O)n(-c2ccc(C(C)(C)C#N)cc2)c2c3cc(-c4cn[nH]c4)ccc3ncc21 endpoint_value="7.9 µL/min/1e6 cells"

What value of measured hepatocyte CLint at 1 µM is listed for "Cn1c(=O)n(C2CCNCC2)c2c3cc(-c4cn[nH]c4)ccc3ncc21" ?
1 µL/min/1e6 cells

###

ASSAY: 1-Octanol-aquoues buffer distribution coefficient, log D of compound at pH 7.4 by UPLC-MS based shake flask method
Assay type: physicochemical
RUN PARAMETERS: 1-octanol/aqueous buffer
MEASUREMENT LABEL: logD
Number only, no unit.

structure_smiles_string=Cn1c(=O)n(C2CCNCC2)c2c3cc(-c4cn[nH]c4)ccc3ncc21 endpoint_value=0.1

// next item, logD requested
Look up logD: "Cn1c(=O)n(-c2ccc(C(C)(C)C#N)cc2)c2c3cc(-c4cn[nH]c4)ccc3ncc21"
3

###

ASSAY: Cmax in NMRI mouse at 10 mg/kg, ip measured up to 24 hrs by LC/MS/MS analysis
Format: ADME, organism-based
Set-up: route intraperitoneal, dose 10 mg/kg, time <=24
RUN PARAMETERS: in vivo
MEASUREMENT LABEL: Cmax (µg/mL)
Field format: number, assumed µg/mL, no unit text.

// Cmax lookup, key: "Cn1c(=O)n(-c2ccc(C(C)(C)C#N)cc2)c2c3cc(-c4cn[nH]c4)ccc3ncc21"
0.57

###

ASSAY: Half life in NMRI mouse at 10 mg/kg, ip measured up to 24 hrs by LC/MS/MS analysis
Assay type: ADME, organism-based
RUN PARAMETERS: in vivo
MEASUREMENT LABEL: half-life (h)
Report as a plain number; the unit h is understood.

Dear colleague, I am looking for the recorded half-life of the following molecule: "Cn1c(=O)n(-c2ccc(C(C)(C)C#N)cc2)c2c3cc(-c4cn[nH]c4)ccc3ncc21"
1.3
